conditions: in DMAc, 288.15 K
measurementKind: solubility (mole fraction)

> print(dat)
                                    smi             measurementkind  measuredresult
1  Cl.OC(CCCN1CCCCC1)(c1ccccc1)c1ccccc1  solubility (mole fraction)         0.00254

###

conditions: in water, 318.15 K
measurementKind: solubility (mole fraction)

> print(dat)
                                    smi             measurementkind  measuredresult
1  Cl.OC(CCCN1CCCCC1)(c1ccccc1)c1ccccc1  solubility (mole fraction)         0.00193

###

details: in water, 283.15 K
measurementKind: solubility (mole fraction)

> print(dat)
                                    smi  measuredresult
1  Cl.OC(CCCN1CCCCC1)(c1ccccc1)c1ccccc1           0.001

###

details: in NMP, 278.15 K
measurementKind: solubility (mole fraction)

> print(dat)
                                    smi             measurementkind  measuredresult
1  Cl.OC(CCCN1CCCCC1)(c1ccccc1)c1ccccc1  solubility (mole fraction)         0.00427

###

conditions: in NMP, 288.15 K
measurementKind: solubility (mole fraction)

> print(dat)
                                    smi             measurementkind  measuredresult
1  Cl.OC(CCCN1CCCCC1)(c1ccccc1)c1ccccc1  solubility (mole fraction)          0.0056

###

details: in NMP, 298.15 K
measurementKind: solubility (mole fraction)

> print(dat)
                                    smi  measuredresult
1  Cl.OC(CCCN1CCCCC1)(c1ccccc1)c1ccccc1         0.00725

###

conditions: in ethanol, 278.15 K
measurementKind: solubility (mole fraction)

> print(dat)
                                    smi  measuredresult
1  Cl.OC(CCCN1CCCCC1)(c1ccccc1)c1ccccc1         0.00161

###

settings: in acetic acid, 318.15 K
measurementKind: solubility (mole fraction)

> print(dat)
                                    smi             measurementkind  measuredresult
1  Cl.OC(CCCN1CCCCC1)(c1ccccc1)c1ccccc1  solubility (mole fraction)          0.0428

###

conditions: in DMSO, 313.15 K
measurementKind: solubility (mole fraction)

> print(dat)
                                    smi  measuredresult
1  Cl.OC(CCCN1CCCCC1)(c1ccccc1)c1ccccc1           0.019

###

conditions: in methanol, 308.15 K
measurementKind: solubility (mole fraction)

> print(dat)
                                    smi             measurementkind  measuredresult
1  Cl.OC(CCCN1CCCCC1)(c1ccccc1)c1ccccc1  solubility (mole fraction)          0.0245

###

settings: in DMAc, 293.15 K
measurementKind: solubility (mole fraction)

> print(dat)
                                    smi  measuredresult
1  Cl.OC(CCCN1CCCCC1)(c1ccccc1)c1ccccc1         0.00305

###

conditions: in ethanol, 298.15 K
measurementKind: solubility (mole fraction)

> print(dat)
                                    smi  measuredresult
1  Cl.OC(CCCN1CCCCC1)(c1ccccc1)c1ccccc1         0.00336

###

conditions: in n-pentanol, 303.15 K
measurementKind: solubility (mole fraction)

> print(dat)
                                    smi  measuredresult
1  Cl.OC(CCCN1CCCCC1)(c1ccccc1)c1ccccc1         0.00121

###

conditions: in water, 278.15 K
measurementKind: solubility (mole fraction)

> print(dat)
                                    smi  measuredresult
1  Cl.OC(CCCN1CCCCC1)(c1ccccc1)c1ccccc1        0.000935

###

conditions: in NMP, 313.15 K
measurementKind: solubility (mole fraction)

> print(dat)
                                    smi             measurementkind  measuredresult
1  Cl.OC(CCCN1CCCCC1)(c1ccccc1)c1ccccc1  solubility (mole fraction)          0.0104

###

conditions: in DMF, 298.15 K
measurementKind: solubility (mole fraction)

> print(dat)
                                    smi             measurementkind  measuredresult
1  Cl.OC(CCCN1CCCCC1)(c1ccccc1)c1ccccc1  solubility (mole fraction)         0.00466

###

settings: in acetonitrile, 308.15 K
measurementKind: solubility (mole fraction)

> print(dat)
                                    smi  measuredresult
1  Cl.OC(CCCN1CCCCC1)(c1ccccc1)c1ccccc1        0.000623

###

details: in n-butanol, 288.15 K
measurementKind: solubility (mole fraction)

> print(dat)
                                    smi             measurementkind  measuredresult
1  Cl.OC(CCCN1CCCCC1)(c1ccccc1)c1ccccc1  solubility (mole fraction)        0.000907
